experiment: in vitro
recorded.conditions: human, Caco-2
observable: Papp A→B (×10⁻⁶ cm/s)
Just the number in ×10⁻⁶ cm/s, nothing appended.

Query block: Requested field: Papp A→B. Item: CNC(=O)C(=O)[C@H](C[C@@H]1CCNC1=O)NC(=O)[C@@H]1[C@@H]2[C@H](CN1C(=O)[C@@H](NC(=O)C13CC(C1)C3)C(C)(C)C)C2(C)C [ML1002m]
Result block: 0.4

Query block: Which Papp A→B reading was recorded for the compound CNC(=O)C(=O)[C@H](C[C@@H]1CCNC1=O)NC(=O)[C@@H]1[C@@H]2[C@H](CN1C(=O)CNc1c(F)cc(F)cc1F)C2(C)C [ML104m] ?
Result block: 0.5

Query block: Reported Papp A→B for CC(C)(C)NC(=O)N[C@H](C(=O)N1C[C@H]2[C@@H]([C@H]1C(=O)NC(CC1CCC1)C(=O)C(N)=O)C2(C)C)C(C)(C)C (stereo partly drawn) [Boceprevir, boceprevir, reference compound] : what is it?
Result block: 2

---

experiment: in vitro
recorded.conditions: human, Caco-2
observable: Papp A→B

Query block: Request the reported Papp A→B associated with CC1(C)[C@@H]2[C@@H](C(=O)NC(C[C@@H]3CCNC3=O)C(=O)C(N)=O)N(C(=O)CNc3c(F)cc(F)cc3F)C[C@@H]21 (stereo partly drawn) [ML104]
Result block: < 0.2 ×10⁻⁶ cm/s

Query block: Requested field: Papp A→B. Item: CC1(C)[C@@H]2[C@@H](C(=O)N[C@@H](C[C@@H]3CCNC3=O)C(=O)C(N)=O)N(C(=O)CCc3ccccc3)C[C@@H]21 [ML102]
Result block: < 0.2 ×10⁻⁶ cm/s

Query block: Requested field: Papp A→B. Item: CC(C)(C)[C@H](NC(=O)C12CC(C1)C2)C(=O)N1C[C@H]2[C@@H]([C@H]1C(=O)N[C@@H](C[C@@H]1CCNC1=O)C(=O)C(N)=O)C2(C)C [ML1002]
Result block: < 0.2 ×10⁻⁶ cm/s
